Measured inhibition at 10 µM by item
# TARGET_OR_TEST_SYSTEM: Nuclear receptor subfamily 1 group I member 3 (Mus musculus, UniProt O35627, I252L)
# Sequence (O35627 whole entry I252L): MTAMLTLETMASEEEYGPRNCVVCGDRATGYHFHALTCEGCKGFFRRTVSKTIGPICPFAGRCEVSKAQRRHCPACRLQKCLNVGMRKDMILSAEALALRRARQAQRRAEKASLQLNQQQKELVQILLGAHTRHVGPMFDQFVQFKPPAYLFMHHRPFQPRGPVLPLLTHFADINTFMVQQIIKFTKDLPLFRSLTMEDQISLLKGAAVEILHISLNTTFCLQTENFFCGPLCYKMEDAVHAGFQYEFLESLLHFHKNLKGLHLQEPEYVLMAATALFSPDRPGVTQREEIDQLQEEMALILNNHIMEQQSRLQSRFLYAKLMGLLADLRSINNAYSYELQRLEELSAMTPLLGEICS
# CONDITION_CONTEXT: HEK293, mouse, read-out: Activity

COMPOUND: C[C@]12CC[C@@H](O)C[C@@H]1CC[C@@H]1[C@@H]2CC[C@]2(C)C=CC[C@@H]12
CENSOR_SYMBOL: <
inhibition at 10 µM, %: 50

COMPOUND: COc1ccc(C(c2ccc(OC)cc2)C(Cl)(Cl)Cl)cc1
CENSOR_SYMBOL: =
inhibition at 10 µM, %: 50

COMPOUND: COc1ccc(C(=O)CCCc2ccccc2)cc1
CENSOR_SYMBOL: =
inhibition at 10 µM, %: 50

COMPOUND: COc1ccccc1CC(CC(=O)Cc1ccccc1)OC (centres undefined)
CENSOR_SYMBOL: <
inhibition at 10 µM, %: 50
